biological target: HLA-A2.1 MHC class I molecules on T2 cells (human); test: T2 cells pulsed with peptide, anti-HLA-A2.1 flow cytometry; Brefeldin A treatment: 6 hr
Mark fulfilled only for binding score (HLA-A2.1 fluorescence on T2 cells) values smaller than 200; exact matches and larger values are not fulfilled.

Exam item: Please check: binding score (HLA-A2.1 fluorescence on T2 cells) for SHFLKMESL (Synthetic nonamer) [CD20 peptide SHFLKMESL (SEQ ID NO: 11)] , strictly under 200 or not?
Marked response: fulfilled

Exam item: For AISGMILSI (Synthetic nonamer) [CD20 peptide AISGMILSI (SEQ ID NO: 7)] then?
Marked response: fulfilled

Exam item: For RLLFFLLFL (Synthetic nonamer) [CD19 peptide RLLFFLLFL (SEQ ID NO: 1)] then?
Marked response: fulfilled

Exam item: For LLFLTPMEV (Synthetic nonamer) [CD19 peptide LLFLTPMEV (SEQ ID NO: 3)] then?
Marked response: not fulfilled

Exam item: For LKMESLNFI (Synthetic nonamer) [CD20 peptide LKMESLNFI (SEQ ID NO: 10)] then?
Marked response: fulfilled

Exam item: For TLAYLIFCL (Synthetic nonamer) [CD19 peptide TLAYLIFCL (SEQ ID NO: 2)] then?
Marked response: not fulfilled

Exam item: For FIRAHTPYI (Synthetic nonamer) [CD20 peptide FIRAHTPYI (SEQ ID NO: 8)] then?
Marked response: fulfilled

Exam item: For SLFLGILSV (Synthetic nonamer) [CD20 peptide SLFLGILSV (SEQ ID NO: 6)] then?
Marked response: not fulfilled
